test system: APJ-eGFP fusion protein; experiment: Internalization assay, CHO-M1 cells expressing APJ-eGFP, high-content imaging; assay type: cell-based; conditions: lowest concentration at which maximum internalization was observed; 0.914 nM to 2000 nM
Sequence (P35414 whole entry, the tested form may be a part): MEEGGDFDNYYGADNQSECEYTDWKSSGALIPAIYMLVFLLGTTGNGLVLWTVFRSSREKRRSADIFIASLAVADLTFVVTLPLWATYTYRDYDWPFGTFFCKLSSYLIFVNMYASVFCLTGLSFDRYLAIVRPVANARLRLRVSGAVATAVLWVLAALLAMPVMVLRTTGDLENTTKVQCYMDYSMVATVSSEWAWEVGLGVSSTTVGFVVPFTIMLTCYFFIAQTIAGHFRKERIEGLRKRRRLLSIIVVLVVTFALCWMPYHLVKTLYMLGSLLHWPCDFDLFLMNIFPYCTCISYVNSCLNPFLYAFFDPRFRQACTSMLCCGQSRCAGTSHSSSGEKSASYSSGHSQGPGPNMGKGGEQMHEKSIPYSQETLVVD
Reported Internalization Score values for the following molecules.

| Molecule | Data Value |
| --- | --- |
| APL-I: Leader-Fc-linker fusion of apelin analogue QRPRLSHKGPAAW (M11A, P12A, F13W) (protein) MRAWIFFLLCLAGRALADKTHTSPPSPAPEAAGGPSVFLFPPKPKDTLMISRTPEVTCVVVDVSHEDPEVKFNWYVDGVEVHNAKTKPREEQYNSTYRVVSVLTVLHQDWLNGKEYKCKVSNKALPAPIEKTISKAKGQPREPQVYTLPPSREEMTKNQVNLTCLVKGFYPSDIAVEWESNGQPENNYKTTPPVLDSDGSFFLNSTLTVDKSRWQQGNVFSCSVMHEALHNHYTQKSLSLSPGKGGGGSGGGGSGGGGSQRPRLSHKGPAAW | 1 (>1000) |
| APL-L: Leader-Fc-linker fusion of apelin analogue QRPRLQHKNPMAW (S6Q, G9N, P12A, F13W) (protein) MRAWIFFLLCLAGRALADKTHTSPPSPAPEAAGGPSVFLFPPKPKDTLMISRTPEVTCVVVDVSHEDPEVKFNWYVDGVEVHNAKTKPREEQYNSTYRVVSVLTVLHQDWLNGKEYKCKVSNKALPAPIEKTISKAKGQPREPQVYTLPPSREEMTKNQVNLTCLVKGFYPSDIAVEWESNGQPENNYKTTPPVLDSDGSFFLNSTLTVDKSRWQQGNVFSCSVMHEALHNHYTQKSLSLSPGKGGGGSGGGGSGGGGSQRPRLQHKNPMAW | 0 |
| ELA-G: Fc-linker fusion of elabela analogue KLRKHNCLQRRCMPLHSYVPFP (R18Y) (protein) MRAWIFFLLCLAGRALADKTHTSPPSPAPEAAGGPSVFLFPPKPKDTLMISRTPEVTCVVVDVSHEDPEVKFNWYVDGVEVHNAKTKPREEQYNSTYRVVSVLTVLHQDWLNGKEYKCKVSNKALPAPIEKTISKAKGQPREPQVYTLPPSREEMTKNQVNLTCLVKGFYPSDIAVEWESNGQPENNYKTTPPVLDSDGSFFLNSTLTVDKSRWQQGNVFSCSVMHEALHNHYTQKSLSLSPGKGGGGSGGGGSGGGGSKLRKHNCLQRRCMPLHSYVPFP | 1 (>1000) |

Now consider the entry below.
Looking for the measured Internalization Score of ELA-D: Fc-linker fusion of elabela analogue KLRKHNCLQRRCMPLHQRVPFP (S17Q) (protein) MRAWIFFLLCLAGRALADKTHTSPPSPAPEAAGGPSVFLFPPKPKDTLMISRTPEVTCVVVDVSHEDPEVKFNWYVDGVEVHNAKTKPREEQYNSTYRVVSVLTVLHQDWLNGKEYKCKVSNKALPAPIEKTISKAKGQPREPQVYTLPPSREEMTKNQVNLTCLVKGFYPSDIAVEWESNGQPENNYKTTPPVLDSDGSFFLNSTLTVDKSRWQQGNVFSCSVMHEALHNHYTQKSLSLSPGKGGGGSGGGGSGGGGSKLRKHNCLQRRCMPLHQRVPFP , can you help?
1 (>1000)

Origin of measurements: patent US20240383958A1
